# Test system: MHC-I expression by COLO 205 cells
# Experiment Description: cells
# Assay type: cell-based, human
# Test Settings: Homo sapiens, COLO 205, 48 h, MHC-I expression, COLO 205 cells, compounds at 35 μM, 48 hours, flow cytometry (W6/32); read-out: Induction Fold
Measured Property: fold induction at 35 µM
Give bare numbers.

O=C(Oc1ccc2ncccc2c1)c1cn(CCCCCF)c2ccccc12 : 3.4

List the reported fold induction at 35 µM of each compound below.
1. CC(C)(NC(=O)c1nn(CC2CCOCC2)c2ccccc12)c1ccccc1
2. O=C(Oc1ccc2cccnc2c1)c1cn(CC2CCCCC2)c2ccccc12
3. CC1(C)C(C(=O)c2cn(Cc3ccc(F)cc3)c3ccccc23)C1(C)C
4. Cc1c(C(=O)C2C(C)(C)C2(C)C)c2ccccc2n1CCCCCF
5. C=C(C)[C@@H]1CCC(C)=C[C@H]1C1=C(O)C(=O)C(CCCCC)=CC1=O
6. CCCCCn1nc(C(=O)NC(C(N)=O)C(C)(C)C)c2ccccc21 (stereo not drawn)

[1.27, 3.01, 2.79, 2.29, 0.3, 2.61]

List the reported fold induction at 35 µM of each compound below.
1. CCC(CC)n1cc(C(=O)c2cccc3ccccc23)c2ccccc21
2. CN1CCCCC1Cn1cc(C(=O)c2cc([N+](=O)[O-])ccc2I)c2ccccc21 (stereo not drawn)

[3, 5.59]

###

# Test system: MHC-I expression by COLO 205 cells
# Experiment Description: cells
# Type: cell-based, human
# Test Settings: Homo sapiens, COLO 205, 48 h, MHC-I expression, COLO 205 cells, compounds at 35 μM, 48 hours, flow cytometry (W6/32); read-out: Induction Fold
For each of the molecules below, state its fold induction at 35 µM.
Give bare numbers.

In the examples that follow, each entry is paired with its recorded fold induction at 35 µM.
CCC(C)Cn1cc(C(=O)c2cccc3ccccc23)c2ccccc21 (stereo not drawn) : 2.86
CC(F)CCCn1cc(C(=O)Oc2cccc3cccnc23)c2ccccc21 (stereo not drawn) : 2.41
CN(C)C(=O)n1nnnc1Cc1ccc(-c2ccccc2)cc1 : 1.45
CCCCn1cc(C(=O)c2ccc3ccccc3c2)c2ccccc21 : 1.26
CCCCn1cc(C(=O)c2c(C)ccc3ccccc23)c2ccccc21 : 3.84

List the reported fold induction at 35 µM of each molecule below.
1. CCC(C)Cn1cc(C(=O)c2ccc3ccccc3c2)c2ccccc21 (stereo not drawn)
2. CCCCCn1cc(C(=O)c2cccc3cc(Cl)ccc23)c2ccccc21
3. CC(C)Cn1cc(C(=O)c2ccc3ccccc3c2)c2ccccc21
4. CC(C)(C)n1cc(C(=O)c2cccc3ccccc23)c2ccccc21

[1.54, 1.46, 1.46, 1.2]

###

# Test system: MHC-I expression by COLO 205 cells
# Experiment Description: cells
# Type: cell-based, human
# Test Settings: Homo sapiens, COLO 205, 48 h, MHC-I expression, COLO 205 cells, compounds at 35 μM, 48 hours, flow cytometry (W6/32); read-out: Induction Fold
Measured Property: fold induction at 35 µM
Answers are plain numbers.

In the examples that follow, each entry is paired with its recorded fold induction at 35 µM.
COc1ccccc1CC(=O)c1cn(CCC2CCCCC2)c2ccccc12 : 2.65
CC(C)(C)C(NC(=O)c1nn(Cc2ccc(F)cc2)c2ccccc12)C(N)=O (stereo not shown) : 1.64
CCOc1ccc(Cc2nc3cc(C(=O)N(CC)CC)ccc3n2CC2CCCCC2)cc1 : 0.92
CCCc1ccc(C(=O)c2cn(CCC)c3ccccc23)c2ccccc12 : 2.58
CCCCCn1cc(C(=O)Nc2cccc3cccnc23)c2ccccc21 : 2.19
CCCCCn1cc(C(=O)Oc2cncc3ccccc23)c2ccccc21 : 2.98
CCCCCn1cc(C(=O)c2ccc(Br)c3ccccc23)c2ccccc21 : 1.86
CC(C)(C)Cn1cc(C(=O)c2cccc3ccccc23)c2ccccc21 : 3
CCCCCn1cc(C(=O)c2ccc(Cl)c3ccccc23)c2ccccc21 : 1.76
CC(C)[C@H](NC(=O)c1c2ccccc2nn1CC1CCCCC1)C(N)=O : 1.14

List the reported fold induction at 35 µM of each molecule below.
1. CC(C)(C)C(NC(=O)c1nn(Cc2ccccc2)c2ccccc12)C(N)=O (stereo not shown)
2. O=C(Oc1cccc2ccccc12)c1cn(Cc2ccc(F)cc2)c2ccccc12
3. CCCCCn1c(C)c(C(=O)c2ccc(CC)c3ccccc23)c2ccccc21

1.79
1.63
1.66

List the reported fold induction at 35 µM of each molecule below.
1. CCC(F)CCn1cc(C(=O)c2ccc(C)c3ccccc23)c2ccccc21 (stereo not shown)
2. O=C(c1ccc2ccccc2c1)c1cn(CCN2CCOCC2)c2ccccc12
3. CCCCCn1cc(C(=O)c2c(C)ccc3ccccc23)c2ccccc21
4. CCCCCCC(C)(C)c1cc(O)cc(OCCCCCCCC(=O)NC2CC2)c1
5. CC(F)CCCn1cc(C(=O)Nc2cccc3ccccc23)c2ccccc21 (stereo not shown)
6. CCCCCn1nc(C(=O)Nc2cccc3cccnc23)c2ccccc21

1. 1.96
2. 4.3
3. 3.6
4. 2.06
5. 1.19
6. 1.71

###

# Test system: MHC-I expression by COLO 205 cells
# Experiment Description: cells
# Format: cell-based, human
# Test Settings: Homo sapiens, COLO 205, 48 h, MHC-I expression, COLO 205 cells, compounds at 35 μM, 48 hours, flow cytometry (W6/32); read-out: Induction Fold
Structures can show the parent of a compound that is named as a salt.
Measured Property: fold induction at 35 µM
One number for each entry.

In the examples that follow, each entry is paired with its recorded fold induction at 35 µM.
CCCCCn1cc(C(=O)c2cc(CC)cc3ccccc23)c2ccccc21 : 1.56
COc1ccc(C(=O)c2c(C)n(CCN3CCOCC3)c3cc(I)ccc23)cc1 : 1.3
CCCCCn1cc(C(=O)c2cc(Cl)cc3ccccc23)c2ccccc21 [Example 263, hydrate] : 1.56
CC(C)[C@H](NC(=O)c1nn(Cc2cccc(F)c2)c2ccccc12)C(N)=O : 1.77
CCCCCn1cc(C(=O)Cc2ccccc2OC)c2ccccc21 : 2.39
Cc1ccc(C(=O)c2cn(CCN3CCOCC3)c3ccccc23)c2ccccc12 : 1.87
COc1ccc(N2CCNCC2)cc1 [Example 347, (hydrochloride)] : 1.12
O=C(Nc1cccc2ccccc12)c1cn(Cc2ccc(F)cc2)c2ccccc12 : 1.23

Just so you know, measured fold induction at 35 µM for `O=C(Nc1cccc(-c2ccccc2)c1)OC1CCCCC1` came out at 1.74

###

For each of the compounds below, state its Fold Induction.
# System: MHC-I expression on COLO 205 cells
# Experiment Description: Phytocannabinoid MHC-I induction on COLO 205 cells, 0-100 μM, 48 hours
# Test Settings: MHC-I expression on COLO 205 cells, 0-100 μM, 48 hours, relative to control cells treated only with buffer
Numbers only, in Fold.

In the examples that follow, each entry is paired with its recorded Fold Induction.
CC(C)=CCC/C(C)=C/Cc1c(O)cc(C)cc1O [Example 388] : 2.7
CCCc1cc(O)c2c(c1)OC(C)(CCC=C(C)C)C=C2 (stereo not drawn) [Example 381] : 3.3
CCCCCc1cc(O)c2c(c1)OC(C)(C)c1ccc(C)cc1-2 [Example 4] : 1.8
CCCCCc1cc2c3c(c1)OC(C)(C)C1CCC(C)(CC31)O2 (stereo not drawn) [Example 382] : 1.3
CCCCCc1cc(O)c2c(c1)OC(C)(CCC=C(C)C)C=C2 (stereo not drawn) [Example 3] : 1.6
C=C(C)[C@@H]1CCC(C)=C[C@H]1c1c(O)cc(CCC)cc1O [Example 386] : 5.5
CCCc1cc(O)c2c(c1)OC(C)(C)[C@@H]1CCC(C)=C[C@@H]21 [Example 5] : 3.0
CCCc1cc(O)c2c(c1)OC(C)(C)c1ccc(C)cc1-2 [Example 385] : 3.9

List the reported Fold Induction of each compound below.
1. CCCCCc1cc(O)c(C/C=C(\C)CCC=C(C)C)c(O)c1 [Example 1]
2. CCCCCc1cc(O)c2c(c1)OC1(C)CCC3C1C2C3(C)C (stereo not drawn) [Example 390]
3. C=C(C)[C@@H]1CCC(C)=CC1c1c(O)cc(CCCCC)cc1O (stereo partly drawn) [Example 2]
4. CCCCCc1cc(O)c2c(c1)OC(C)(C)[C@@H]1CCC(C)=C[C@@H]21 [Example 384]

1: 2.7; 2: 4.2; 3: 2.8; 4: 6.1

###

# Test system: MHC-I expression by COLO 205 cells
# Experiment Description: cells
# Type: cell-based, human
# Test Settings: Homo sapiens, COLO 205, 48 h, MHC-I expression, COLO 205 cells, compounds at 35 μM, 48 hours, flow cytometry (W6/32); read-out: Induction Fold
Measured Property: fold induction at 35 µM
Answers are plain numbers.

In the examples that follow, each entry is paired with its recorded fold induction at 35 µM.
CC1(C)C(C(=O)c2cn(CCCC(F)(F)F)c3ccccc23)C1(C)C : 2.37
CC(F)CCCn1cc(C(=O)c2cccc3ccccc23)c2ccccc21 (stereo not drawn) : 1.32
CCCCC(F)Cn1cc(C(=O)c2cccc3ccccc23)c2ccccc21 (stereo not drawn) : 1.85
CCCCCC1=C/C(=C\c2cccc3ccccc23)c2ccccc21 : 1.39
O=C(c1ccc2ccccc2c1)c1cn(CCCCCF)c2ccccc12 : 2.19
CCCCCn1nc(C(=O)N[C@H](C(N)=O)C(C)C)c2ccccc21 : 2.43

List the reported fold induction at 35 µM of each compound below.
1. COC(=O)[C@@H](NC(=O)c1cn(CCCCCF)c2ccccc12)C(C)C
2. O=C(Nc1cccc2ccccc12)c1nn(CCCCCF)c2ccccc12
3. CC(C)C(C)n1cc(C(=O)c2cccc3ccccc23)c2ccccc21 (stereo not drawn)

[1.05, 1.9, 2.7]

All figures here come from patent US20210038559A1.
